Source: patent US20200024330A1

Recorded measurements of Fold IC50 increase relative to wild-type, one per entry
# TEST SYSTEM: HIV-1 JR-CSF Env T341A (HIV-1 isolate JR-CSF) (UniProt P20871)
# ASSAY REMARKS: cell-based or functional assay
// units = fold; emit number, no label

Problem: Could you share which Fold IC50 increase relative to wild-type value was measured for PGT-131 (antibody, V domains shown) VH: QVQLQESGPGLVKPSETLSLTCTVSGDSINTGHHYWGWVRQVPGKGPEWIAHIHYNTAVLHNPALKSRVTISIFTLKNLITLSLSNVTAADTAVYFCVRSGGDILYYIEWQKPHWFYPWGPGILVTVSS VL: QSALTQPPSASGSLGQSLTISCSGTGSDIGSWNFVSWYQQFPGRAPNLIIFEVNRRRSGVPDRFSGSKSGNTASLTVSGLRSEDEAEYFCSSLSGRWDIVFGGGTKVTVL ?
Result: 1.3

Problem: What would you report for PGT-128 (antibody, V domains shown) VH: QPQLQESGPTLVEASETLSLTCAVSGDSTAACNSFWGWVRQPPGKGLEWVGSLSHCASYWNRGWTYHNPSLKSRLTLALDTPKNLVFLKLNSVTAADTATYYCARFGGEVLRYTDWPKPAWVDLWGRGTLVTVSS VL: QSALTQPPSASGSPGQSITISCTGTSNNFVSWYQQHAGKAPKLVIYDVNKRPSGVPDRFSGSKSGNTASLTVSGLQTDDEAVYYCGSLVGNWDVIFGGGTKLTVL ?
Result: 1.3

Problem: What would you report for PGT-123 (antibody, V domains shown) VH: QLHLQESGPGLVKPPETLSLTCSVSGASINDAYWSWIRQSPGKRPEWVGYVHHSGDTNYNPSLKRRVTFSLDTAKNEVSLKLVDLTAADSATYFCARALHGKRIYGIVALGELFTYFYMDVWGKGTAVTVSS VL: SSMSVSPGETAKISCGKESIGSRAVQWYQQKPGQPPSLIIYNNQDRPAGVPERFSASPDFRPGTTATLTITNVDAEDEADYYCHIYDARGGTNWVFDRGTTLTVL ?
Result: 0.3

Problem: What would you report for PGT-126 (antibody, V domains shown) VH: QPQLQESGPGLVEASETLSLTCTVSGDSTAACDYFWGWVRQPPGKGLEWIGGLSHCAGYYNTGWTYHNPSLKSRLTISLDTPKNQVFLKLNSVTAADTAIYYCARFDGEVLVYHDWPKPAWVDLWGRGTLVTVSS VL: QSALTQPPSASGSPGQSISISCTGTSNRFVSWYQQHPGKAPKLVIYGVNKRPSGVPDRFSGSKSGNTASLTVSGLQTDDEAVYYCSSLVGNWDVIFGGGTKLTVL ?
Result: 0.5

Problem: What would you report for PGT-127 (antibody, V domains shown) VH: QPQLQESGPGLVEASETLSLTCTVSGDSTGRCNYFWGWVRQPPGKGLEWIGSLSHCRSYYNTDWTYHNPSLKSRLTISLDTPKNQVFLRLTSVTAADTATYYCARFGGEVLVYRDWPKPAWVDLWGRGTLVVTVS VL: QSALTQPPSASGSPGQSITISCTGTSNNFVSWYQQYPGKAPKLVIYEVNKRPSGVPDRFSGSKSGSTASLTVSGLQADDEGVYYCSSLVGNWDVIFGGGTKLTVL ?
Result: 1.7
